Below are IC50 values for NUAK1 (Homo sapiens) collected from several publications.

Worked examples follow.
Test item "CN(C)CCn1ccnc1-c1ccc(Nc2cn(-c3c(Cl)cccc3Cl)nc2C(N)=O)cc1" ; NUAK1 (Homo sapiens); reported IC50 was 100 to 1000 nM

The measured IC50 that "Cc1ccc2c(c1)-c1[nH]ncc1NC(c1c(F)cccc1I)=N2" showed for NUAK1 (Homo sapiens) is 100 to 1000 nM

Sample "C[C@@H]1CN(c2ccc(Nc3ncc(C(F)(F)F)c(Nc4cccc5c4C(=O)NC5)n3)c(OC(F)F)c2)C[C@H](C)N1" , system: NUAK1 (Homo sapiens). Its IC50 is 11 to 100 nM

Record "Cc1ccc2c(c1)-c1[nH]ncc1N=C(c1c(F)cccc1[N+](=O)[O-])N2" / NUAK1 (Homo sapiens), IC50 recorded as 10 to 100 nM

Bench note, NUAK1 (Homo sapiens): entry "COc1ccc2c(c1F)N=C(c1c(F)cccc1F)Nc1cn[nH]c1-2" , its IC50 = 10 to 100 nM

# IC50 measured on NUAK1 (Homo sapiens) for item "NC(=O)c1cnc2c(c1)-c1[nH]ncc1N=C(c1c(F)cccc1F)N2" = 100 to 1000 nM

Next:
Measured on NUAK1 (Homo sapiens), "O=C1NCc2cccc(Nc3nc(Nc4ccc(N5C[C@H]6CC[C@@H](C5)N6)cc4OC(F)F)ncc3Cl)c21" has a documented IC50 of 11 to 100 nM

Recorded IC50 for "NC(=O)c1nn(-c2c(F)cccc2Cl)cc1Nc1ccc(-c2nnc3n2CCCC3)cc1" on NUAK1 (Homo sapiens) was 100 to 1000 nM

Value (IC50, NUAK1 (Homo sapiens)) for record "CCN1CCN(c2ccc(Nc3nccc(Nc4cccc5c4C(=O)NC5)n3)cc2F)CC1" = 0.1 to 10 nM

Note to self: IC50 of "Cc1ccc2c(c1)-c1n[nH]cc1NC(c1c(F)cc(C(F)(F)F)cc1F)=N2" with NUAK1 (Homo sapiens) was 100 to 1000 nM

IC50 for NUAK1 (Homo sapiens) with input "Fc1cccc(-c2ccc3c(c2)N=C(c2c(F)cccc2Cl)Nc2c[nH]nc2-3)c1" equals 10 to 100 nM

Reported IC50 (NUAK1 (Homo sapiens)) for entry "Fc1cccc(F)c1C1=Nc2cn[nH]c2-c2cc(-c3ccc[nH]3)cnc2N1" is 100 to 1000 nM

// IC50 (NUAK1 (Homo sapiens)) for "CCc1cc(F)c2c(c1)-c1[nH]nc(Cl)c1NC(c1c(F)cccc1F)=N2" = 10 to 100 nM

Bench note, NUAK1 (Homo sapiens): "CC(C)n1ncnc1-c1ccc(Nc2cn(-c3c(F)cccc3F)nc2C(N)=O)cc1" , IC50 reads 100 to 1000 nM

Bench note, NUAK1 (Homo sapiens): entry "CN1CCN(C2CCN(c3ccc(Nc4ncc(Cl)c(Nc5cccc6c5C(=O)NC6)n4)c(OC(F)F)c3)CC2)CC1" , its IC50 = 11 to 100 nM

Reading of IC50 for "Fc1cc2c(cc1-c1ccnnc1)N=C(c1c(F)cccc1Cl)Nc1c[nH]nc1-2" with NUAK1 (Homo sapiens): 10 to 100 nM

// compound "Fc1ccc2c(c1)-c1[nH]ncc1N=C(c1c(F)cc(OC(F)F)cc1F)N2" , assay NUAK1 (Homo sapiens), IC50 value: 10 to 100 nM
